Source listed as patent US20170340636A1.

# Test System: ASK1 (Homo sapiens)
# Sequence (Q99683 whole entry, species assumed): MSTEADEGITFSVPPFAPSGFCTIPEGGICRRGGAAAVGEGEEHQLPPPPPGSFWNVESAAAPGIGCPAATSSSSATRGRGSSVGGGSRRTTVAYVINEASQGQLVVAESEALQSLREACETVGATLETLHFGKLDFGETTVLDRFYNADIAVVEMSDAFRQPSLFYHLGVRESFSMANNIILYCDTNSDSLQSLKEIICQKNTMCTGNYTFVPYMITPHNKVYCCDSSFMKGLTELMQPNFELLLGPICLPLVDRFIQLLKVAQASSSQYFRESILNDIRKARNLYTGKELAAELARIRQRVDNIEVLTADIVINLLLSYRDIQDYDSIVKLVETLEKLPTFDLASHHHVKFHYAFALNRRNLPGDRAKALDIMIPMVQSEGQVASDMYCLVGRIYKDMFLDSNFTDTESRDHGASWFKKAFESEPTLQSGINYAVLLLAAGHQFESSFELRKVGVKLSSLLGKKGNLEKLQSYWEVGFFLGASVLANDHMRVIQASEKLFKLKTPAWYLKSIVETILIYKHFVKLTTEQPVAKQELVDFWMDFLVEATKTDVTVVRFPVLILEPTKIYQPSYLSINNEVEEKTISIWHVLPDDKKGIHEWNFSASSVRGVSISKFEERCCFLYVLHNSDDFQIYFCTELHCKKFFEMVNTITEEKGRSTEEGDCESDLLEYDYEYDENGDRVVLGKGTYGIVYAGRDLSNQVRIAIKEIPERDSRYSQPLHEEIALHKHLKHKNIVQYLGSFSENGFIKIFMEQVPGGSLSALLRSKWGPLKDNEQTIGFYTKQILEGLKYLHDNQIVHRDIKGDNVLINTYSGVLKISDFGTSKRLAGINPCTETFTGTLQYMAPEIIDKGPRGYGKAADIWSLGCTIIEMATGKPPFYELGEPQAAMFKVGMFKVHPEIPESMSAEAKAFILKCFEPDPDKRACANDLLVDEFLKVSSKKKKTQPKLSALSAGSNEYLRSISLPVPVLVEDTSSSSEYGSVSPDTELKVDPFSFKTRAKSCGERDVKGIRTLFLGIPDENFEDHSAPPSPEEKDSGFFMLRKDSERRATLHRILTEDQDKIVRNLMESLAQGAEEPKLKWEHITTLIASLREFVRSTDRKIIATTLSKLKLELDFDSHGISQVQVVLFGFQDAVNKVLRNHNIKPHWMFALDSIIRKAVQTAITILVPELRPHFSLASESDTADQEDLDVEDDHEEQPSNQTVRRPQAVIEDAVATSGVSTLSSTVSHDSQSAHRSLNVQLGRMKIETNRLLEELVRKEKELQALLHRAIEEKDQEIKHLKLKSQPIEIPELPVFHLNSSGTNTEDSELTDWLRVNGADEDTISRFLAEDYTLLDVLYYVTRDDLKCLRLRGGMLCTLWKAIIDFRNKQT
# Assay Procedure: DSF against ASK1 (selectivity panel of MAPK cascade members)
# Format: binding
# Measurement Setup: difference between the TAOK2 ΔTm and that of ASK1, DSF
Form field: ΔΔTm (ASK1) (one value per entry).

>  <Compound>
CCC(=O)Nc1nc(C)c(-c2csc(Nc3cc(OC)ccc3OC)n2)s1

>  <Test System>
ASK1 (Homo sapiens)

>  <Unit Tag>
°C

>  <ΔΔTm (ASK1)>
2.7

$$$$
>  <Compound>
CCOCCCn1c(=S)[nH]c2cc(C(=O)NCC3COc4ccccc4O3)ccc2c1=O (centres unmarked)

>  <Test System>
ASK1 (Homo sapiens)

>  <Unit Tag>
°C

>  <ΔΔTm (ASK1)>
2.1

$$$$
>  <Compound>
O=C(NCC1COc2ccccc2O1)c1ccc2c(=O)n(Cc3ccco3)c(=S)[nH]c2c1 (centres unmarked)

>  <Test System>
ASK1 (Homo sapiens)

>  <Unit Tag>
°C

>  <ΔΔTm (ASK1)>
1.1

$$$$
>  <Compound>
CS(=O)(=O)c1ccc2nc(NC(=O)CCCOc3ccc(Cl)cc3)sc2c1

>  <Test System>
ASK1 (Homo sapiens)

>  <Unit Tag>
°C

>  <ΔΔTm (ASK1)>
1.2

$$$$
>  <Compound>
Cc1ccc(NCCCC(=O)N/N=C/c2cc(Br)cc(Br)c2O)cc1

>  <Test System>
ASK1 (Homo sapiens)

>  <Unit Tag>
°C

>  <ΔΔTm (ASK1)>
1.2

$$$$
